PROTOCOL: small-molecule microarray binders of probe aCHRDL2, primary screen, biochemical, biotinylated probe, 635/667 nm fluorescence (AID 1100)
SETUP_CONDITIONS: higher = more signal
ATTRIBUTE_MEASURED: composite z-score
A bare number is all that is needed in reply.

Supply measured composite z-score of "COCCOC(=O)N1C(=O)[C@@]2(c3cc(C#CC4(O)CCCCCC4)ccc31)[C@H](c1ccccc1OCCO)N1[C@H](c3ccccc3)[C@H](c3ccccc3)OC(=O)[C@H]1[C@@H]2C(=O)N1CCCCCCC1" in your reply. 1.43

Supply measured composite z-score of COc1cc(OC)c(C(O)C2C=CC3C(=O)N(c4ccccc4)C(=O)C3N2Nc2ccccc2F)cc1Br (configuration not stated) in your reply. 0.95

Supply measured composite z-score of "COc1ccc(CCNC(=O)[C@@H]2c3ccccc3C(=O)N(CC34CC5CC(CC(C5)C3)C4)[C@H]2c2ccc(CO)cc2)cc1" in your reply. 0.309

Supply measured composite z-score of O=C1C2C=CC(C(O)c3cccc(O)c3)N(Nc3ccccc3F)C2C(=O)N1c1ccccc1 (configuration not stated) in your reply. 0.247

Supply measured composite z-score of C=CCC(OC(C)=O)[C@@H]1[C@@H](N(Cc2cccc3ccccc23)C(=O)c2ccc(C)cc2)c2cc(OCCCO)ccc2N1C(=O)c1ccc2ccccc2n1 (some centres not stated) in your reply. 0.322

Supply measured composite z-score of "COc1cccc(C[C@H]2C[C@@H](CO[Si](C(C)C)(C(C)C)C(C)C)N3C(=O)[C@@]4(C(C)=O)O[C@@]23[C@@H]2C(=O)N(C)C(=O)[C@@H]24)c1" in your reply. -0.197

Supply measured composite z-score of CCCCN1CC=CC23O[C@@H]4C=CCOC(=O)[C@@H]4[C@H]2C(=O)N(C(CO)C(C)C)[C@@H]3C1=O (some centres not stated) in your reply. -0.476
